// data source = the supplement of paper PMC4466140

Below, each entry is listed alongside its reported SPOT peptide array binding signal intensity.
# EXPERIMENTAL_SYSTEM: ScPex13
# TEST_DESCRIPTION: SPOT peptide array binding signal intensity (averaged, normalized) (arbitrary units (background-subtracted, floor 0; scale differs between SH3 domains)); higher = stronger binding of the SH3 domain to the peptide
Hey, just send me the number, nothing else.

SPOT peptide array binding signal intensity recorded for this binder, `FYHRPAPKPPVTKKV` , is 530

Summary for this binder, `SSSSSPPPLPTRRDH` : SPOT peptide array binding signal intensity is 1560

response.value for `GDHPKGPPPPPPPPD` (field: SPOT peptide array binding signal intensity) = 7.63e-06

response.value for `NLKKRPPTAPQRKIS` (field: SPOT peptide array binding signal intensity) = 1.75

Turning now to a further binder:
The reported SPOT peptide array binding signal intensity of the binder `HKVLRPFLLRRLKKD` was 0.5
